// reported minimum inhibitory concentrations per item
- System: Staphylococcus aureus Oxford
- assay.text: antibacterial activity, MIC by standard broth dilution method in microtitre
- Type: cell-based
- stated.conditions: S.a. = Staphylococcus aureus Oxford

INSERT INTO measurements (molecule, measurement) VALUES
  ('C=C[C@]1(C)C[C@@H](OC(=O)CO)[C@]2(C)[C@H](C)CC[C@]3(CCC(=O)[C@H]32)[C@@H](C)[C@@H]1O [Pleuomutilin, Pleuromutilin]', '2 micrograms per milliliter');

Okay, next one:
Asked: I have this molecule here, C=C[C@]1(C)C[C@@H](OC(=O)CSCCN(CC)CC)[C@]2(C)[C@H](C)CC[C@]3(CCC(=O)[C@H]32)[C@@H](C)[C@@H]1O [Tiamulia, Tiamulin, reference compound] , and I need its recorded minimum inhibitory concentrations.
Given back: 0.25 micrograms per milliliter

====

// reported minimum inhibitory concentrations per item
- Test system: Escherichla coli DCU
- assay.text: antibacterial activity, MIC by standard broth dilution method in microtitre
- Format: cell-based
- stated.conditions: E.c. = Escherichla coli DCU

Solved entries:
INSERT INTO measurements (compound, measurement_type, measurement) VALUES
  ('C=C[C@]1(C)C[C@@H](OC(=O)CO)[C@]2(C)[C@H](C)CC[C@]3(CCC(=O)[C@H]32)[C@@H](C)[C@@H]1O', 'minimum inhibitory concentrations', '>64 micrograms per milliliter'),
  ('C=C[C@]1(C)C[C@@H](OC(=O)CSC2CCN(C)CC2)[C@]2(C)[C@H](C)CC[C@]3(CCC(=O)[C@H]32)[C@@H](C)[C@@H]1O', 'minimum inhibitory concentrations', '64 micrograms per milliliter'),
  ('C=C[C@]1(C)C[C@@H](OC(=O)CSC23CCN(CC2)CC3)[C@]2(C)[C@H](C)CC[C@]3(CCC(=O)[C@H]32)[C@@H](C)[C@@H]1O', 'minimum inhibitory concentrations', '16 micrograms per milliliter');

Asked: I have this compound here, C=C[C@]1(C)C[C@@H](OC(=O)CSC2CC3CCC(C2)N3C)[C@]2(C)C(C)CC[C@]3(CCC(=O)[C@H]32)[C@@H](C)[C@@H]1O (some centres unmarked) , and I need its recorded minimum inhibitory concentrations.
Given back: 32 micrograms per milliliter

Asked: Record: C=C[C@]1(C)C[C@@H](OC(=O)CSCCN(CC)CC)[C@]2(C)[C@H](C)CC[C@]3(CCC(=O)[C@H]32)[C@@H](C)[C@@H]1O [Tiamulia, Tiamulin, reference compound]
Given back: >64 micrograms per milliliter
